tested on: HCT-116 colon; assay: NCI-60 one-dose screen, 48 h (100 = growth as untreated, 0 = no growth, -100 = all killed); settings: 10 µM
This is part of a sample that, as a whole, favours compounds with a hit. Of some 83,000 tested, about 20% had one in any assay.
measured.attribute: growth (%)
Just the number please, in %, no unit attached.

Below, 2 compounds whose answers are already recorded.
# molecule, units.symbol, assay.value
data = [
    ("COc1ccc(-c2nc(-c3nc4cc(Cl)c(Cl)cc4[nH]3)c3ccccn23)cc1", "%", 24.8),
    ("CCOC(=O)c1ccc(NC(=O)Nc2ncc(Cl)cc2Cl)cc1", "%", 83.9),
]

Enter reported growth observed with HCT-116 colon for COc1cccc(C(=O)Nc2ccc(CN3CCc4nc5cc(OC)c(OC)cc5cc43)cc2)c1
38.9

Enter reported growth observed with HCT-116 colon for CSc1nc(=O)n(Cc2ccc(Cl)cc2)c(=O)[nH]1
103

Enter reported growth observed with HCT-116 colon for CCn1cc(C(=O)O)c(=O)c2cnc(N3CCCC3)nc21
96.9

Enter reported growth observed with HCT-116 colon for ClC(Cl)(Cl)c1nc2nccnc2[nH]1
103

Enter reported growth observed with HCT-116 colon for COc1cc(-c2cc(/C=C/C(=O)c3ccc(N)cc3)[nH]n2)cc(OC)c1OC
-81.5

###

system: TK-10 renal; test: NCI-60 one-dose screen, 48 h; details: 10 µM
About 83,000 compounds went through this panel and 20% of them were active in at least one assay; those are over-represented in the sample as a whole. The source made the active and inactive calls. How the source made its calls: active means growth percent below 10; inactive means the rest.
Reply using exactly one outcome from TRUE for active, FALSE for inactive

Illustrative cases are given below, each with its answer.
# compound, assigned.label
records = [
    ("CCN(CC)CCSCCN(CC)CC", "FALSE"),
    ("C#Cc1ccc(-n2c(/C=C/c3ccc(Cl)c(F)c3)nc3ncccc3c2=O)cc1", "TRUE"),
    ("Cc1cc(=O)[nH]c(N/N=C/c2ccccc2O)n1", "FALSE"),
    ("CCCCCCCNc1nc(C=O)ncc1-c1ccc(C(F)(F)F)cc1", "FALSE"),
    ("COc1ccc(-c2ccc3cc(C(=O)Nc4ccc(O)c(C(=O)/C=C/c5cc(OC)c(OC)c(OC)c5)c4)ccc3c2)cc1", "FALSE"),
]

Outcome logged for O=C1OCC2=C1C(c1cccc(Br)c1)c1cc3c(cc1N2CCO)CCC3 (stereo unspecified) in this assay:
FALSE

Outcome logged for COc1cc(/C=C/C(=O)c2ccc(Cl)cc2)ccc1OS(=O)(=O)c1ccc(C)cc1 in this assay:
FALSE

Outcome logged for Cn1c([N+](=O)[O-])cnc1/C=C1\Oc2ccc(Cl)cc2C1=O in this assay:
TRUE

Outcome logged for CC(=O)[C@H]1CC[C@H]2[C@@H]3CCC4=CC(=O)C=C[C@]4(C)[C@H]3CC[C@]12C in this assay:
FALSE

Outcome logged for COc1ccc(-c2nc3ccccn3c2-c2nnc(-c3cc(OC)c(OC)c(OC)c3)o2)cc1 in this assay:
FALSE

Outcome logged for N=C1c2nc3n(c2C(=O)c2nc4n(c21)CCCC4)CCCC3 in this assay:
FALSE

Outcome logged for Cc1ccc(NC(=O)CSc2nc3ccccc3c(=O)n2CCc2ccccc2)c(C(=O)O)c1 in this assay:
FALSE

Outcome logged for N#CCCN1C/C(=C/c2ccc(Br)cc2)C(=O)/C(=C/c2ccc(Br)cc2)C1 in this assay:
TRUE

Outcome logged for O=C1/C(=C\c2ccc(Cl)cc2)CN(C(=O)c2ccccc2)C/C1=C\c1ccc(Cl)cc1 in this assay:
FALSE

Outcome logged for Cc1ccc(S(=O)(=O)OCCN(CCOS(=O)(=O)c2ccc(C)cc2)c2c[nH]c(=O)[nH]c2=O)cc1 in this assay:
FALSE

Outcome logged for Nc1c(C(=O)Nc2ccccc2)sc2nc3c(cc12)CCCC3 in this assay:
FALSE

Outcome logged for COc1cc(Cl)cc(-c2nn(-c3cccc(NC(=O)Nc4ccc(Cl)c(C(F)(F)F)c4)c3)cc2-c2ccncc2)c1 in this assay:
FALSE

Outcome logged for COc1cccc(NC(=O)c2sc3nc4c(cc3c2N)C(O)CCC4)c1 (stereo unspecified) in this assay:
FALSE

Outcome logged for CC(=O)c1cc(Cl)ccc1O in this assay:
FALSE

Outcome logged for COc1cc(Cl)cc(-c2nn(-c3cccc(NC(=O)Nc4ccc(Cl)c(Cl)c4)c3)cc2-c2ccncc2)c1 in this assay:
FALSE

Outcome logged for COc1ccc(OC)c(/C=C/c2nc(SC)n(-c3ccc(Cl)cc3)n2)c1 in this assay:
FALSE

Outcome logged for CCCC1(CC(=O)O)OCCc2c1[nH]c1ccccc21 (stereo unspecified) in this assay:
FALSE

Outcome logged for COc1cc(Cl)cc(-c2nn(-c3cccc(NC(=O)Nc4cc(C(F)(F)F)cc(C(F)(F)F)c4)c3)cc2-c2ccncc2)c1 in this assay:
FALSE
